measurement.description: Aqueous solubility, pH dependent
Assay type: physicochemical
conditions: Water
endpoint.label: Aqueous Solubility (µM)
Field format: number, assumed µM, no unit text.

q: Endpoint output: Aqueous Solubility of CCCCCc1cc(OC(=O)[C@@H](N)CCC(N)=O)c2c(c1)OC(C)(C)[C@@H]1CCC(C)=C[C@@H]21 [THC-Glutaminate (9), Δ^9-THC-glutaminate] . Value?
a: 3.63

q: Endpoint output: Aqueous Solubility of CCCCCc1cc(OC(=O)C(NC(=O)CCC(=O)O)C(C)C)c2c(c1)OC(C)(C)C1CCC(C)=CC21 (stereo not shown) [THC-Valinate-HS (15), THC-valinate-hemisuccinate] . Value?
a: 16.54

q: Endpoint output: Aqueous Solubility of CCCCCc1cc(OC(=O)C(N)Cc2c[nH]c3ccccc23)c2c(c1)OC(C)(C)C1CCC(C)=CC21.O=C(O)CC(=O)O (stereo not shown) [THC-Tryptophanate Malonate] . Value?
a: 8.02

q: Endpoint output: Aqueous Solubility of CCCCCc1cc(OC(=O)[C@@H](N)C(C)C)c2c(c1)OC(C)(C)C1CCC(C)=CC21.O=C(O)CC(=O)O (stereo partly shown) [THC-Valinate malonate] . Value?
a: 2.33

---

measurement.description: Aqueous solubility, pH dependent
Type: physicochemical
conditions: aqueous medium, pH 3, aqueous buffer
endpoint.label: solubility (µM)
Field format: number, assumed µM, no unit text.

q: Endpoint output: solubility of CCCCCc1cc(O)c2c(c1)OC(C)(C)C1CCC(C)=CC21 (stereo not shown) [THC, Δ^9-Tetrahydrocannabinol, reference compound] . Value?
a: 2.23

---

Documented Aqueous Solubility across a set of compounds
measurement.description: Aqueous solubility, pH dependent
Format: physicochemical
conditions: pH 2
Field format: number, assumed µg/mL, no unit text.

q: Endpoint output: Aqueous Solubility of CCCCCc1cc(OC(=O)CNC)c2c(c1)OC(C)(C)[C@@H]1CCC(C)=C[C@@H]21 [THC-Sarcosinate (7), Δ^9-THC-sarcosinate] . Value?
a: 151.75

Next:
q: Endpoint output: Aqueous Solubility of CCCCCc1cc(OC(=O)C(NC(=O)CCC(=O)O)C(C)C)c2c(c1)OC(C)(C)C1CCC(C)=CC21 (stereo not drawn) [THC-Valinate-HS (15), THC-valinate-hemisuccinate] . Value?
a: 0.09

q: Endpoint output: Aqueous Solubility of CCCCCc1cc(OC(=O)[C@@H](N)Cc2ccc(O)cc2)c2c(c1)OC(C)(C)[C@@H]1CCC(C)=C[C@@H]21 [THC-Tyrosinate (11), Δ^9-THC-tyrosinate] . Value?
a: 15.76

---

measurement.description: Aqueous solubility, pH dependent
Format: physicochemical
conditions: water; H20
endpoint.label: solubility
Express your answer as a number followed by its unit.

q: Endpoint output: solubility of CCCCCc1cc(O)c2c(c1)OC(C)(C)C1CCC(C)=CC21 (stereo not shown) [THC, Δ^9-Tetrahydrocannabinol, reference compound] . Value?
a: 2.23 µg/mL

---

Documented THC content of the sample after heating across a set of molecules
measurement.description: Thermal stability, 120° C. for 10 min
Assay type: physicochemical
conditions: 120° C. for 10 min
Field format: number, assumed µg, no unit text.

Worked set:
q: Endpoint output: THC content of the sample after heating of CCCCCc1cc(OC(=O)[C@@H](N)Cc2ccc(O)cc2)c2c(c1)OC(C)(C)[C@@H]1CCC(C)=C[C@@H]21 [THC-Tyrosinate (11), Δ^9-THC-tyrosinate] . Value?
a: 123.75

q: Endpoint output: THC content of the sample after heating of `CCCCCc1cc(OC(=O)CCCc2ccc(NC(=O)CCC(=O)O)cc2)c2c(c1)OC(C)(C)[C@@H]1CCC(C)=C[C@@H]21` . Value?
a: 0

q: Endpoint output: THC content of the sample after heating of CCCCCc1cc(OC(=O)CNC)c2c(c1)OC(C)(C)[C@@H]1CCC(C)=C[C@@H]21 [THC-Sarcosinate (7), Δ^9-THC-sarcosinate] . Value?
a: 54.53

Next:
q: Endpoint output: THC content of the sample after heating of CCCCCc1cc(OC(=O)C(NC(=O)CCC(=O)O)C(C)C)c2c(c1)OC(C)(C)C1CCC(C)=CC21 (stereo not shown) [THC-Valinate-HS (15), THC-valinate-hemisuccinate] . Value?
a: 80.26

Origin of values: patent US9630941B2
